Overview of recorded growth inhibition for various compounds
# METHOD NOTES: NCI Yeast Anticancer Drug Screen. Data for the mlh1 rad18 strain (AID 175)
# SETUP CONDITIONS: S. cerevisiae mlh1 rad18 strain growth inhibition; at 50.0 µM; hits give high values
This is part of a sample that, as a whole, favours compounds with a hit. Of some 79,000 tested, about 15% had one in any assay.
Use % as the unit, but write only the number.

Please review the entries below; each comes with its answer.
COMPOUND	growth inhibition [%]
CC(C)(C)C(=O)Nc1ccccc1	23
c1ccc(C(Sc2ncnc3nc[nH]c23)c2ccccc2)cc1	0.1
CN(C)Cc1cccc(-c2ccccc2)c1O	17.2
CC1=Nc2ccccc2S/C1=C(/C)NN	0.9
C(=N\OCc1ccccc1)/c1ncccc1C1OCCO1	-8.75

Per the record, COC(C)C(NC(=O)C1CCCN1C)C1OC(SCCOC(=O)c2ccccc2O)C(O)C(O)C1O (stereo unspecified) has growth inhibition of 31.6

Measured growth inhibition of O=C(CCN1CCC2CCC(C2)C1)c1ccc(Cl)cc1 (stereo unspecified) : -7.3

Reported growth inhibition ( Cc1ccc(C2=Nc3cccc4cccc(c34)N2)cc1 ) = -8.85

// growth inhibition lookup, compound = O=C/C(=C1/C=Cc2cc([N+](=O)[O-])ccc2S1)c1ccccc1 , result: -6.6

Form: compound = OCC1=CCCCC1 ; growth inhibition = 0.25

Measured growth inhibition of Cc1cccc(Cl)c1N=Nc1c(N)nc(N)[nH]c1=O : -0.5

Documented growth inhibition of O=C(C[n+]1cc(Br)cc(Br)c1)c1ccc(Cl)cc1 : -7.9

Documented growth inhibition of O.[Cl][Co]([Cl])[Cl].c1c[nH]cn1.c1c[nH]cn1 : -2.7

What the record says about CCOC(=O)NC(=S)Nc1ccn(C)c1 : growth inhibition is 46.6

* * *

# METHOD NOTES: NCI Yeast Anticancer Drug Screen. Data for the bub3 strain (AID 167)
# SETUP CONDITIONS: S. cerevisiae bub3 mutant strain, at 50.0 µM, hits give high values
# Description: Growth inhibition of yeast strains with defined genetic alterations is measured as a screen for potential anti-cancer activity. Selected strains with alterations in DNA damage repair or cell cycle control were exposed to compounds and growth inhibition was measured relative to vehicle treated controls. The strain used in this assay is bub3
This is part of a sample that, as a whole, favours compounds with a hit. Of some 79,000 tested, about 15% had one in any assay. Active and inactive are the calls of the source. Cut-off read from the data, not from the text of the source: active = growth inhibition above about 70%; inactive = the rest.
REPORTED ENDPOINT: growth inhibition

COMPOUND	growth inhibition
CCOP(=O)(OCC)/C(=C/NC(=S)c1cccnc1)C(=O)OC	17.6% (inactive)
CCC(C(CC(=O)c1ccccc1)c1ccccc1)[N+](=O)[O-] (centres undefined)	10.2% (inactive)
Cc1ccc(C)c(CNC(=O)NC(C)(C)C)c1	-11.2% (inactive)
CC(=O)c1ccc(C(=O)O)cc1	-4.3% (inactive)
COc1ccc2c(c1)C(=O)C1CCC(=O)N1C2c1ccc2c(c1)OCO2 (centres undefined)	47.1% (inactive)

Field growth inhibition (entry C=CC1C(OC2OC(CO)C(O)C(O)C2O)OC=C(C(=O)OC)C1CC1CC(=O)CC(CCc2ccc(O)cc2)O1 (centres undefined) ) reads -13.9% (inactive)

Item: CN1CCCC(CO)C1 (centres undefined) | growth inhibition: 7.75% (inactive)

So for Cc1c(Cl)ccc([N+](=O)[O-])c1Cl , the logged growth inhibition turned out to be 14.8% (inactive)

Recorded growth inhibition (compound CCOc1cc2c(cc1C(CC)c1ccccc1)OCO2 (centres undefined) ): 17.6% (inactive)

The compound Cc1cc2c(C(C)C)c(O)c(O)c(C=Nc3ccccc3)c2c(O)c1-c1c(C)cc2c(C(C)C)c(O)c(O)c(C=Nc3ccccc3)c2c1O showed growth inhibition equal to -2.3% (inactive)

Record COC(=O)/C(C#N)=C/c1ccco1 . Reported growth inhibition: -2.05% (inactive)

Consider CC1=CC(=O)C2=C(C)CCC3C(C)C(=O)OC3C12 (centres undefined) . Its measured growth inhibition is -3.55% (inactive)

The compound listed as CC(=O)c1cccc(NC(=O)C(=O)C(C(=O)NN)c2ccccc2)c1 (centres undefined) has a reported growth inhibition of 23% (inactive)

Query CC(=O)OCC(OC(C)=O)C(OC(C)=O)C(OC(C)=O)C(O)CO (centres undefined) yields growth inhibition of 24.6% (inactive)

// sample CCCCNC(=O)C(CCCC)C(CCC)(CCC)CCCC (centres undefined) , its growth inhibition was 55.3% (inactive)

Consider CCn1c(=O)c2nc(SC)sc2n(-c2ccc(C)cc2)c1=O . Its measured growth inhibition is 2% (inactive)

Form: compound = COc1ccc([N+](=O)[O-])c2c(NCCC[N+](C)(C)[O-])c3ccccc3nc12 ; growth inhibition = -19.2% (inactive)

Kindly note the recorded growth inhibition for CC(C)NC(=O)OCc1c(COC(=O)NC(C)C)c2cccn2c2c1cnn2-c1ccccc1 , which is 0.15% (inactive)

Summary for this compound, CN(C)C1CS(=O)(=O)OC2=C1COCC2 (centres undefined) : growth inhibition is 15.8% (inactive)

* * *

# METHOD NOTES: NCI Yeast Anticancer Drug Screen. Data for the bub3 strain (AID 167)
# SETUP CONDITIONS: S. cerevisiae bub3 mutant strain, at 50.0 µM, hits give high values
The panel holds about 79,000 compounds, 15% with a hit somewhere; the sample as a whole holds those more often.
REPORTED ENDPOINT: growth inhibition (%)
Unit % implied. Number only.

MOLECULE	UNITS OF MEASURE	growth inhibition
Nc1[nH]n(-c2ccccc2)c(=O)c1/C=N/C(=S)NC1CCCCC1	%	-47.8
Nc1nc(SCC(=O)c2ccc(Br)cc2)c2[nH]cnc2n1	%	23.1
CCC1(C(=O)O)NC(=O)NC1=O (stereo not given)	%	4.5
S=C(NCN1CCOCC1)NCN1CCOCC1	%	2.05

Proceeding to the next molecule to report its growth inhibition.
Per the records, this molecule ( CN=NN(C)C(=O)NC ) has growth inhibition equal to -25

* * *

# METHOD NOTES: NCI Yeast Anticancer Drug Screen. Data for the sgs1 mgt1 strain (AID 161);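 further: 0% = growth of cultures given vehicle only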
# SETUP CONDITIONS: S. cerevisiae sgs1 mgt1 strain, at 50.0 µM, hits give high values
About 79,000 compounds went through this panel and 15% of them were active in at least one assay; those are over-represented in the sample as a whole.
REPORTED ENDPOINT: growth inhibition (%)
Write the value in % as a bare number.

COMPOUND	UNITS OF MEASURE	RECORDED MEASUREMENT
CC1CCC(C(C)C)C(NC(=O)c2cccnc2)C1 (stereo not given)	%	-2.75
COc1ccc(CCN=C2OCc3ccccc32)cc1OC	%	-42.6
C[C@]12CCC(=O)C(O)=C1CCC2=O	%	-5.3
Cc1cccn2c(C)nnc12	%	-1.35
CCOC(=O)C(C)(C)O	%	1.05
COc1ccc(OC)c(NC(=O)Sc2c(Cl)c(Cl)nc(Cl)c2Cl)c1	%	16.2

The measured growth inhibition associated with Cn1c(=O)c2[nH]c(=O)n(C)c2n(C)c1=O reads 12.6

So, S=c1sc2c(Cl)nc(Cl)nc2n1-c1ccccc1 ? Its growth inhibition was -13.6

# compound O=C(O)Cc1c(O)ccc2ccccc12 ; its growth inhibition = -34.5

Kindly note the recorded growth inhibition for O=S(=O)(c1ccccc1)C1(Sc2ccccc2)CC(Br)[C@@H](Br)C1 (stereo not given in full) , which is 25.5

Record COc1ccc(CC2=NCCc3cc(OCc4ccccc4)c(OC)cc32)cc1OCc1ccccc1 , field growth inhibition: 52.5

growth inhibition recorded for this compound, O/N=C1/CCSc2ccccc21 , is 17.1

Briefly, growth inhibition measured for C[N+]1(C)C2CC(=O)CC1C1CC12 (stereo not given) : 4.55

CC1(C)OC(=O)C(=Cc2cccc3ccc4ccccc4c23)C(=O)O1 yielded growth inhibition of 8.9

* * *

# METHOD NOTES: NCI Yeast Anticancer Drug Screen. Data for the bub3 strain (AID 167)
# SETUP CONDITIONS: S. cerevisiae bub3 mutant strain, at 50.0 µM, hits give high values
The panel holds about 79,000 compounds, 15% with a hit somewhere; the sample as a whole holds those more often.
Note to self: class labels come from recorded growth inhibition, ranges listed here: low: < -10%; mid: ≥ -10% and < 10%; high: ≥ 10%

A selection of reference data follows.
COMPOUND	CLASS LABEL
CN(C)c1ccc(C=C(c2ccc(N)cc2)c2ccc(N)cc2)cc1	high
CCOC(=O)NCc1cccc2ccccc12	high
CC12CCC(=O)C=C1CCC1C2C(=O)CC2(C)C1CCC2(O)C(=O)Cn1c(=O)cc[nH]c1=O (stereo unspecified)	mid
CCC(O)C(O)(c1ccccc1)c1ccccc1 (stereo unspecified)	mid
CC1(c2nc3ccccc3[nH]2)CCC(C(=O)O)C(C)(C)O1 (stereo unspecified)	low

INPUT: Hi, small favor: classify Cc1ccc(Cl)cc1NC(=O)Nc1cc(Cl)c(Cl)cc1C by its growth inhibition when you get a moment.
OUTPUT: high

INPUT: Exam item: assign Cc1nc2c3c4c(sc3nc(C)n2n1)CCCC4 to the correct category.
OUTPUT: mid

INPUT: Dear colleague, I would appreciate it if you could identify the bin for COC(=O)c1nc(N)[nH]c(=O)c1-c1ccc(Cl)cc1 and reply at your convenience.
OUTPUT: low
